pIC50: −log10 of the molar value.
Observed pIC50 for Prothrombin (Homo sapiens), reported per entry below.
MEASURE_NAME: pIC50

Below are worked cases with known answers.
# COMPOUND, MEASURE_NAME, MEASURED_NUMBER
rows = [
    ("CC(C)(C)OC(=O)NN1CCO[C@H](CC(=O)NCc2ccc(C(=N)N)cc2)C1=O", "pIC50", 4.26),
    ("N=C(N)c1ccc(CNC(=O)C[C@@H]2OCCN(NCCCc3ccccc3)C2=O)cc1", "pIC50", 5.32),
    ("Cc1ccc(C)c(S(=O)(=O)NN2CCOC(CC(=O)NCc3ccc(C(=N)N)cc3)C2=O)c1 (stereo not drawn)", "pIC50", 6.61),
]

I. N=C(N)c1ccc(CNC(=O)C[C@H]2OCCN(NC(=O)c3ccccc3)C2=O)cc1
II. Cc1ccc(CCNN2CCOC(CC(=O)NCc3ccc(C(=N)N)cc3)C2=O)cc1 (stereo not drawn)
Problem: Could you check which of I and II has a smaller value for pIC50? Your answer should be the label attached to the chosen record.
Solution: I
(I: 3.97, II: 6.02)

A. Cc1cc(S(=O)(=O)NN2CCOC(CC(=O)NCc3ccc(C(=N)N)cc3)C2=O)c(C)cc1Cl (stereo not drawn)
B. N=C(N)c1ccc(CNC(=O)C[C@H]2OCCN(NC(=O)c3ccc(N)cc3)C2=O)cc1
Problem: Please indicate which item has the smaller measured pIC50: A versus B In your reply, give the label of the chosen option.
Solution: B
(B: 3.82, A: 6.79)

A. COc1ccc(OC)c(S(=O)(=O)NN2CCOC(CC(=O)NCc3ccc(C(=N)N)cc3)C2=O)c1 (stereo not drawn)
B. N=C(N)c1ccc(CNC(=O)C[C@H]2OCCN(N(CCCc3ccccc3)CCCc3ccccc3)C2=O)cc1
Problem: Lab log: flag the item ( A or B ) with the smaller pIC50 figure. Answer format: the label of the selected item.
Solution: B

1. N=C(N)c1ccc(CNC(=O)C[C@H]2OCCN(NS(=O)(=O)c3ccccc3)C2=O)cc1
2. CC(C)OC(=O)NN1CCO[C@H](CC(=O)NCc2ccc(C(=N)N)cc2)C1=O
Problem: Response body: label of entry with the larger pIC50; valid values 1 , 2 . The response must carry the label of the picked entry.
Solution: 1
(1: 4.42, 2: 4.09)
